Data credit: the SangsterLogP compilation

readout name: logP
Answers are plain numbers.

Below, each entry is followed by its recorded logP result.
[[record]]
cpd_smiles = "CN1CC=C(c2ccc(Cl)cc2)CC1"
recorded_value = 3.32

[[record]]
cpd_smiles = "CCN1CC=C(c2ccccc2)CC1"
recorded_value = 3.18

[[record]]
cpd_smiles = "CC1=C(c2ccccc2)CCN(C)C1"
recorded_value = 3.18


The record that follows has no logP shown yet.
# input Entry under review: CN1CC=C(c2cccs2)CC1 . Reported logP?
# output 2.51

###

Mark yes for reported logP of 2 or greater; mark no for anything smaller.

Example entries and their recorded answers appear below.
[[record]]
cpd_smiles = "Fc1ccc(C2=CCNCC2)cc1"
assigned_label = "yes"

[[record]]
cpd_smiles = "CN1CC=C(c2ccncc2)CC1"
assigned_label = "no"

[[record]]
cpd_smiles = "CN1CC=C(c2ccc(N)cc2)CC1"
assigned_label = "no"

[[record]]
cpd_smiles = "C1=C(c2ccccc2)CCN(CCc2ccccc2)C1"
assigned_label = "yes"

[[record]]
cpd_smiles = "Cc1ccccc1C1=CCN(C)CC1"
assigned_label = "yes"


Now for another entry.
# input # check: logP of CN1CC=C(c2cccc(N)c2)CC1 is greater than or equal to 2
# output no
